List of pIC50 tested on human IRAK-4 (Homo sapiens (Human), UniProt Q9NWZ3).
Sequence (Q9NWZ3 whole entry): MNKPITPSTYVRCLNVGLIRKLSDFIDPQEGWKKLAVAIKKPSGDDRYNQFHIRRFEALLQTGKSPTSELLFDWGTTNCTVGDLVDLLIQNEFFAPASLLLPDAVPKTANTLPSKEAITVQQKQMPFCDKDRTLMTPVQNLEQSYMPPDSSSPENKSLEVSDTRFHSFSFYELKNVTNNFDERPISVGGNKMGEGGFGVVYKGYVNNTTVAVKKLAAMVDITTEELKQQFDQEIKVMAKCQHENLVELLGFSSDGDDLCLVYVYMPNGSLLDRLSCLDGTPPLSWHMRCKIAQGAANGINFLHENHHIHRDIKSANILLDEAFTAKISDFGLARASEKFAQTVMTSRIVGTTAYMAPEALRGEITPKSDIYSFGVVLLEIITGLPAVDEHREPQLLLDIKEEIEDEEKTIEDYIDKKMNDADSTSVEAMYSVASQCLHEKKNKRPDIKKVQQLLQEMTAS
pIC50: −log10 of the molar value.
recorded_metric: pIC50

[A] N#CC1(NC2CC(C(=O)Nc3nc4ccc(-c5cnc(CO[C@H]6CCC[C@@H]6O)nc5)cc4s3)C2)CC1 (stereo partly shown)
[B] O=C(Nc1nc2ccc(-c3cnc(CO[C@H]4CCC[C@@H]4O)nc3)cc2s1)C1CC(N2CCc3ccccc32)C1 (stereo partly shown)
*Q* Parameter check: reported pIC50 is higher for which label, A or B ? Pick one and reply with its label.
*A* A

====

biological target: human IRAK-4 (Homo sapiens (Human)); experiment: Measurement of human IRAK-4 inhibitory activity (TR-FRET, peptide substrate phosphorylation, 10 μM ATP); format: biochemical; conditions: 1 nM IRAK-4, 10 μM ATP, 23° C., 30 minutes; average values
pIC50: −log10 of the molar value.
recorded_metric: pIC50

[A] CCCOCc1ncc(-c2ccc3nc(NC(=O)[C@H]4C[C@@H](N5CCN(C(=O)c6cc(F)ccn6)C[C@@H]5C)C4)sc3c2)cn1
[B] O=C(Nc1nc2ccc(-c3cnc(CO[C@H]4CCC[C@@H]4O)nc3)cc2s1)C1CC(N2CCOCC2CC2CC2)C1 (some centres unmarked)
[C] CC1COC2(CCCC2)CN1C1CC(C(=O)Nc2nc3ccc(-c4cnc(CO[C@H]5CCC[C@@H]5O)nc4)cc3s2)C1 (some centres unmarked)
*Q* Quick one: which order do the items above go in by pIC50, smallest to largest? Provide the ranking by listing each label in its place in the requested order.
*A* C, B, A
(C: 8.40, B: 8.63, A: 9.16)

[I] C[C@@H]1C[C@H]1C(=O)Nc1nc2ccc(-c3cnc(CO[C@H]4CCC[C@@H]4O)nc3)cc2s1
[II] O=C(Nc1nc2ccc(-c3cnc(CO[C@H]4CCC[C@@H]4O)nc3)cc2s1)C1CC(N[C@@H]2C[C@H]2C(F)(F)F)C1 (some centres unmarked)
[III] CCCOCc1ncc(-c2ccc3nc(NC(=O)C4CC4)sc3c2)cn1
*Q* Hey, quick one: sort these by pIC50, low to high? Provide the ranking by listing each label in its place in the requested order.
*A* III, II, I

[I] O=C(Nc1nc2ccc(-c3cnc(CO[C@H]4CCC[C@@H]4O)nc3)cc2s1)C1CC(N2CCCOCC2)C1 (some centres unmarked)
[II] Cc1cc(C(=O)N2CCN([C@H]3C[C@@H](C(=O)Nc4nc5ccc(-c6cnc(CO[C@H]7CCC[C@@H]7O)nc6)cc5s4)C3)[C@@H](C)C2)cc(C)n1
*Q* Parameter check: reported pIC50 is higher for which label, I or II ? Pick one and reply with its label.
*A* II

====

biological target: human IRAK-4 (Homo sapiens (Human)); assay: Measurement of human IRAK-4 inhibitory activity (TR-FRET, peptide substrate phosphorylation, 10 μM ATP); type: biochemical; settings: 1 nM IRAK-4, 10 μM ATP, 23° C., 30 minutes; average values
pIC50: −log10 of the molar value.
recorded_metric: pIC50

Completed entries (count: 4):
CN(C1CC(C(=O)Nc2nc3ccc(-c4cnc(CO[C@H]5CCC[C@@H]5O)nc4)cc3s2)C1)[C@@H]1C[C@H]1C(F)(F)F (stereo partly shown) [b-03-07] :: 8.28
O=C(Nc1nc2ccc(-c3cnc(CO[C@H]4CCC[C@@H]4O)nc3)cc2s1)[C@H]1C[C@H]1F [a-01-02] :: 8.70
CN1CCN(C2CC(C(=O)Nc3nc4ccc(-c5cnc(CO[C@H]6CCC[C@@H]6O)nc5)cc4s3)C2)CC(F)(F)C1 (stereo partly shown) [b-02-41] :: 8.54
O=C(Nc1nc2ccc(-c3cnc(CO[C@H]4CCC[C@@H]4O)nc3)cc2s1)C1CC2(CCN(CC(F)(F)F)CC2)C1 [d-03-08] :: 8.89

[I] COc1c(-c2cnc(CO[C@H]3CCC[C@@H]3O)nc2)ccc2nc(NC(=O)[C@H]3C[C@@H](N4CCN(C(=O)OC(C)(C)C)C[C@@H]4C)C3)sc12 [c-03-01]
[II] CC(C)(C)O[C@H]1C[C@@H](C(=O)Nc2nc3ccc(-c4cnc(CO[C@H]5CCC[C@@H]5O)nc4)cc3s2)C1 [d-02-01]
[III] O=C(Nc1nc2ccc(-c3cnc(CO[C@H]4CCC[C@@H]4O)nc3)cc2s1)C1CC(NCc2nccs2)C1 (stereo partly shown) [b-02-86]
*Q* Rank order required: pIC50, descending. Provide the ranking by listing each label in its place in the requested order.
*A* III, II, I
